Can you tell me activity, negative = inhibition for the items I'm about to list?
tested_target: Cytochrome P450 3A4 (Homo sapiens) (UniProt P08684)
Sequence (P08684 whole entry, looked up): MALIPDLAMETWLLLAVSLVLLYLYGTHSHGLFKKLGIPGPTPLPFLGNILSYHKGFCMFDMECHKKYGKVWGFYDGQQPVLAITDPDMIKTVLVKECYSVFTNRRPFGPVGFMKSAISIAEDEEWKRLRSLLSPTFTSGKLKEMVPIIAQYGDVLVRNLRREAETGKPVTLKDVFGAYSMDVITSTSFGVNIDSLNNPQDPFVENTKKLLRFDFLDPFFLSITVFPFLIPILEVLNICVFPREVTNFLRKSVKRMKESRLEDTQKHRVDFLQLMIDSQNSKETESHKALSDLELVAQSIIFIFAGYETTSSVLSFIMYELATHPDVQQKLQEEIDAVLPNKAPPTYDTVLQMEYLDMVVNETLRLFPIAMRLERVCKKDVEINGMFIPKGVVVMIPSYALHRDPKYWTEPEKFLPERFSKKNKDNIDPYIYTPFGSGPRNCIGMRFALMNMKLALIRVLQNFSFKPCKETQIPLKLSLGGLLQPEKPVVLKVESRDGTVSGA
assay_protocol: Cytochrome panel assay with activity outcomes; note: % is set by controls: 0 for no effect and ±100 for the full control effect
experimental_parameters: recombinant CYP, pro-luciferin dealkylation, luminescence, p450-cyp3a4; series mostly up to 57.1 µM
Hit rate of the full screen: of about 16,000 compounds, about 5,100 (32%) were called active. Not shown: some 25% with an inconclusive outcome. Some of the results follow.

mol: Nc1ccccc1O.O.O=C(O)[C@H]1[O][Sb][O][C@H]1C(=O)O
recorded_measurement: -6.7% [at 11.4 µM] (inactive)

Alright, here's another compound for you.
Lab book: activity, negative = inhibition of Cc1ncc([N+](=O)[O-])n1CCN=[N+]=[N-] noted as -15.3% [at 11.4 µM] (inactive)

---

tested_target: Cytochrome P450 3A4 (Homo sapiens) (UniProt P08684)
assay_protocol: Cytochrome panel assay with activity outcomes; note: % is set by controls: 0 for no effect and ±100 for the full control effect
experimental_parameters: recombinant CYP, pro-luciferin dealkylation, luminescence, p450-cyp3a4; series mostly up to 57.1 µM
Hit rate of the full screen: of about 16,000 compounds, about 5,100 (32%) were called active. Inconclusive results (about 25%) are left out. The list shows a part of the results.
measured_quantity: activity, negative = inhibition

Please review the entries below; each comes with its answer.
mol: CC(C)CCn1c(N)c(C(=O)NCc2cccs2)c2nc3ccccc3nc21
tested_target: Cytochrome P450 3A4 (Homo sapiens) (UniProt P08684)
activity, negative = inhibition: -19.7% [at 2.29 µM] (inactive)
--
mol: CCCCCCN=Cc1c(O)n(C)c(=O)n(C)c1=O
tested_target: Cytochrome P450 3A4 (Homo sapiens) (UniProt P08684)
activity, negative = inhibition: 16.4% [at 2.29 µM] (inactive)
--
mol: COCCCN1Cc2ccccc2C1=N
tested_target: Cytochrome P450 3A4 (Homo sapiens) (UniProt P08684)
activity, negative = inhibition: inactive
--
mol: C[C@@H](Cc1ccccc1)NCCC(c1ccccc1)c1ccccc1
tested_target: Cytochrome P450 3A4 (Homo sapiens) (UniProt P08684)
activity, negative = inhibition: inactive
--
mol: O=C1c2cc([N+](=O)[O-])ccc2-c2ccc3c4ccc5c6c(ccc(c7ccc1c2c73)c64)C(=O)c1cc([N+](=O)[O-])ccc1-5
tested_target: Cytochrome P450 3A4 (Homo sapiens) (UniProt P08684)
activity, negative = inhibition: -21% [at 11.4 µM] (inactive)
--
mol: Oc1cccc2cccnc12
tested_target: Cytochrome P450 3A4 (Homo sapiens) (UniProt P08684)
activity, negative = inhibition: -3.42% [at 11.4 µM] (inactive)
--
mol: NCCc1ccc(S(=O)(=O)O)cc1[N+](=O)[O-]
tested_target: Cytochrome P450 3A4 (Homo sapiens) (UniProt P08684)
activity, negative = inhibition: -7.4% [at 11.4 µM] (inactive)
--
mol: CCCN1CC[C@@H]2c3cc(O)ccc3CC[C@H]21
tested_target: Cytochrome P450 3A4 (Homo sapiens) (UniProt P08684)
activity, negative = inhibition: inactive
--
mol: CN[C@H](Cc1ccccc1)c1cccc(OC)c1O
tested_target: Cytochrome P450 3A4 (Homo sapiens) (UniProt P08684)
activity, negative = inhibition: -2.26% [at 11.4 µM] (inactive)
--
mol: N=C1c2ccccc2CN1NC(=O)c1ccc(Cl)cc1
tested_target: Cytochrome P450 3A4 (Homo sapiens) (UniProt P08684)
activity, negative = inhibition: inactive

Provide each entry's activity, negative = inhibition from the list below.
1. Cc1[nH]c2ccc(O)cc2c1CCN
2. CC(=O)O/C(=C1/C[C@H]2[C@@H]3CC=C4C[C@@H](OC(C)=O)CC[C@]4(C)[C@@H]3CC[C@]2(C)C1=O)C(F)(F)F

output:
["inactive", "4.88% [at 11.4 µM] (inactive)"]

Provide each entry's activity, negative = inhibition from the list below.
1. O=c1c2ccccc2c2ccccc2c(=O)n1-c1cc2c3ccccc3ccc2c2ccccc12
2. N[C@H](Cc1o[nH]c(=O)c1Cl)C(=O)O

output:
["-20.6% [at 11.4 µM] (inactive)", "inactive"]

Provide each entry's activity, negative = inhibition from the list below.
1. CCN1C[C@]2(COC(=O)c3ccccc3N3C(=O)C[C@H](C)C3=O)CC[C@H](OC)[C@@]34[C@@H]5C[C@H]6[C@H](OC)[C@H]5[C@](O)(C[C@@H]6OC)[C@@](O)([C@@H](OC)[C@@H]23)[C@@H]14
2. CC(=O)OCC1=C(C(=O)O)N2C(=O)[C@@H](N)[C@@H]2SC1
3. CC(C)CN1CCC2(CC1)CCN(S(C)(=O)=O)CC2
4. CC(C)c1ccc(C(O)(C(=O)O)c2ccc(C(C)C)cc2)cc1

output:
1. inactive
2. inactive
3. inactive
4. 19.4% [at 11.4 µM] (inactive)

Provide each entry's activity, negative = inhibition from the list below.
1. Nc1nc(N)c(Cn2ccnc2)c(=O)[nH]1
2. CN(C)C(=O)Oc1cc(OC(=O)N(C)C)cc([C@@H](O)CNC(C)(C)C)c1
3. CC(C)[C@@]1(NC(=O)[C@@H]2C[C@H]3c4cccc5[nH]cc(c45)C[C@@H]3N(C)C2)O[C@]2(O)[C@H]3CCCN3C(=O)CN2C1=O
4. CC(C)CC(=O)C[C@H](O)C(Cl)(Cl)Cl
5. O=C(O)c1ccccc1Nc1cccc(C(F)(F)F)c1
6. CNCCCc1ccccc1

output:
1. -3.48% [at 11.4 µM] (inactive)
2. inactive
3. inactive
4. 1.61% [at 11.4 µM] (inactive)
5. inactive
6. inactive

---

tested_target: Cytochrome P450 3A4 (Homo sapiens)
assay_protocol: Cytochrome panel assay with activity outcomes; note: % is set by controls: 0 for no effect and ±100 for the full control effect
experimental_parameters: recombinant CYP, pro-luciferin dealkylation, luminescence, p450-cyp3a4; series mostly up to 57.1 µM
Out of some 16,000 compounds screened, about 5,100 (32%) were called active. Inconclusive results (about 25%) are left out. This is one part of the list.
measured_quantity: activity, negative = inhibition

Please review the entries below; each comes with its answer.
compound: C[C@@]12CC[C@@H]3c4ccc(O)cc4CC[C@H]3[C@H]1CC[C@H]2O
activity, negative = inhibition: inactive

compound: CC[C@H](Oc1ccc(Cl)cc1)C(=O)OC1C[C@H]2CC[C@@H](C1)N2C (stereo not given in full)
activity, negative = inhibition: inactive

compound: O=C(Nc1cccc(F)c1)N1CC2(CCNCC2)C1
activity, negative = inhibition: inactive

compound: CNC(=S)NC1CC2CCCC(C1)N2CC(C)C (stereo not given)
activity, negative = inhibition: inactive

compound: CCC(CC)C(=O)NC1CCSC1=O (stereo not given)
activity, negative = inhibition: inactive

Provide each entry's activity, negative = inhibition from the list below.
1. N[C@H](CCl)C(=O)O
2. C[C@@H]1[C@H]2C=C[C@@H]1[C@@H](c1c3ccc(=O)c(O)c-3oc3c(O)c(O)ccc13)[C@@H]2C(=O)O
3. CC12CN3CC(C)(CN(C1)C31CCSCC1)C2=O
4. CCNC(=O)[C@@H]1O[C@@H](n2cnc3c(N)ncnc32)[C@H](O)[C@H]1O
5. C[N+](C)(C)[C@H](Cc1c[nH]c(=S)[nH]1)C(=O)O

output:
1: inactive; 2: -0.366% [at 11.4 µM] (inactive); 3: inactive; 4: inactive; 5: -1.29% [at 11.4 µM] (inactive)

Provide each entry's activity, negative = inhibition from the list below.
1. CN(N=O)c1cc(O)ccc1O
2. Nc1nc(N)c(N=Nc2ccc([As](=O)(O)O)c(O)c2)c(N)n1

output:
1: inactive; 2: 7% [at 11.4 µM] (inactive)

Provide each entry's activity, negative = inhibition from the list below.
1. CC1(C)[C@@H]2CC[C@]1(C)CN(CCC[N+](C)(C)C)C2
2. Cc1ccc(C2(c3ccc(C)c(O)c3C)CCN(C)CC2)c(C)c1O
3. C=C[C@@H]1CN2CC[C@H]1C[C@H]2[C@H](O)c1ccnc2ccccc12

output:
1. 12.3% [at 11.4 µM] (inactive)
2. -1.39% [at 11.4 µM] (inactive)
3. -1.79% [at 11.4 µM] (inactive)

Provide each entry's activity, negative = inhibition from the list below.
1. O=C(Nc1ccc(Cl)cc1C(=O)c1ccccc1Cl)c1ccco1
2. C[C@]1(C(=O)O)[C@@H]2CC[C@@H](O2)[C@@]1(C)C(=O)O
3. CCCN(C/C=C\I)[C@@H]1CCc2ccc(O)cc2C1
4. CCCCCCCCCC[Si](C)(C)CCC(=O)N[C@@H](Cc1ccc(C)cc1)c1ccccc1
5. CN1C(=O)CCS(=O)(=O)[C@@H]1c1ccc(Cl)cc1
6. CCNC[C@H](O)c1cccc(O)c1

output:
1. inactive
2. inactive
3. inactive
4. inactive
5. inactive
6. inactive

Provide each entry's activity, negative = inhibition from the list below.
1. C[C@H](N)[C@@H](O)c1ccccc1
2. CC(C)c1ccc(C(c2c(O)c3ccccc3oc2=O)c2c(O)c3ccccc3oc2=O)cc1
3. Fc1ccc(CCNCc2ccc(Cl)c(Cl)c2)cc1
4. Cn1cc(C(=O)C(=O)N[C@H]2CN3CCC2CC3)c2ccccc21
5. CCN1CCN(c2ccc(NC(=O)C(C)C)cc2Cl)CC1

output:
1: inactive; 2: -28.5% [at 11.4 µM] (inactive); 3: -18.5% [at 2.29 µM] (inactive); 4: inactive; 5: inactive

Provide each entry's activity, negative = inhibition from the list below.
1. C[C@@]12CC[C@H]3[C@H](CC=C4C[C@@H](O)CC[C@@]43C)[C@@H]1CC[C@@H]2N(CCO)CCO
2. CC(C)CCC[C@@H](C)[C@@H]1CC[C@@H]2[C@H]3CC[C@H]4C[C@@H](N)CC[C@@]4(C)[C@@H]3CC[C@]21C

output:
12.7% [at 11.4 µM] (inactive)
0.227% [at 11.4 µM] (inactive)

Provide each entry's activity, negative = inhibition from the list below.
1. COC1=CC(=O)O[C@@H](/C=C\c2ccccc2)C1
2. C=C(C)c1ccccc1 (tested in a mixture with another compound)
3. COc1ccc2[nH]cc(CCN)c2c1

output:
1: inactive; 2: -22.2% [at 11.4 µM] (inactive); 3: inactive

Provide each entry's activity, negative = inhibition from the list below.
1. C[C@@H](COc1ccccc1)N(CCCl)Cc1ccccc1
2. CC(NCc1ccc(Cl)cc1)C(O)c1ccccc1 (stereo not given)
3. O=C(CN1CCCCC1)Nc1ccc(Br)cc1C(=O)c1ccccc1Cl
4. COc1cc(-c2ccc(=O)[nH]n2)ccc1OC(F)F

output:
inactive
inactive
-0.765% [at 2.29 µM] (inactive)
inactive
